- target.desc: UniProt P17706
- Sequence (P17706 whole entry, species assumed): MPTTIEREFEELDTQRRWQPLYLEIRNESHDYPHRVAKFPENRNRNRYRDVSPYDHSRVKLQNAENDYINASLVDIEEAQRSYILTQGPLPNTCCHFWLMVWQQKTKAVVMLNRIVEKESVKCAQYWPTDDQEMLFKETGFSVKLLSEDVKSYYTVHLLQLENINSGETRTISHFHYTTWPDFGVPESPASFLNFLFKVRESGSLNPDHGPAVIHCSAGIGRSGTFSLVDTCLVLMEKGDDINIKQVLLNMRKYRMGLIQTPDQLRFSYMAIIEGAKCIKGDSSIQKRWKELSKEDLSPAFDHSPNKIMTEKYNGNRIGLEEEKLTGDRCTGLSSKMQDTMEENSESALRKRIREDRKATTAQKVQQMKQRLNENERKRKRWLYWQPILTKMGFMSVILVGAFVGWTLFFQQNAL
metric.name: IC50 (nM)

// known answers, use as guide
CN1CCN(c2ccc(-c3cc(O)c(N4CC(=O)NS4(=O)=O)c(F)c3)cn2)CC1    457
O=C1CN(c2c(O)cc(CN[C@@H]3CCCOC3)cc2F)S(=O)(=O)N1    139

a. COc1ccc(-c2cc(O)c(N3CC(=O)NS3(=O)=O)c(F)c2)cn1
b. CC(C)CCN1CCC(c2cc(O)c(N3CC(=O)NS3(=O)=O)c(F)c2)CC1
Which is greater in IC50, the first item a or the second item b ? Select an item and report its label. b
(b: 2750 nM, a: 142 nM)

I. O=C1CN(c2c(O)cc(-c3ccncc3)cc2F)S(=O)(=O)N1
II. NC1CCN(c2cc(O)c(N3CC(=O)NS3(=O)=O)c(F)c2)CC1
Name the one with the greater IC50 value, either I or II as given. Indicate your choice by writing its label. II
